Documented % Inhibition at 200 µM across a set of substances
# System: 5-helix bundle (5HB) protein mimicking hRSV fusion protein F
# assay-remarks: 5HB-based competitive fluorescence polarization (FP) binding assay
# Design: species or system human respiratory syncytial virus (hRSV)
# condition-notes: 200 µM peptide; inhibition of Fl-C35 tracer (5 nM) binding to 5HB (20 nM); FP buffer 20 mM PBS pH 7.4, 500 mM NaCl, 0.01% Tween-20, 0.05 mg/ml bovine gamma globulin; 1 h + 30 min at room temperature; ex 485/em 530 nm
Non-standard residues stand in square brackets, D forms with d. No end group written: not given here. Sar = CNCC(=O)O
Please reply with the bare figure in % and do not write the unit itself.

ISQVNEKINASLAFIRKSDE [Peptide A10, alanine-substituted C20 peptide] : 11.36
ISQPNEKINQSLAFIRKSDE [Peptide P4, proline-substituted C20 peptide] : 12.96
ISQVNEKINQSLA[Sar]IRKSDE [Sar14, sarcosine-substituted C20 peptide] : 4.63
PSQVNEKINQSLAFIRKSDE [Peptide P1, proline-substituted C20 peptide] : 26.85

The record that follows has no % Inhibition at 200 µM shown yet.
Ask: # get_value(readout= % Inhibition at 200 µM, system= 5-helix bundle (5HB) protein mimicking hRSV fusion protein F) for ISQVNEKINQSLAFIPKSDE [Peptide P16, proline-substituted C20 peptide]
Result: 4.63

Measured values drawn from paper PMC3605428 for this set.
